# credit: patent US20220380310A1

# target.under.test: P2X7R (Homo sapiens, UniProt Q99572)
# Construct: expressed in transfected cells; host or cells: HEK-293
# Sequence (Q99572 whole entry): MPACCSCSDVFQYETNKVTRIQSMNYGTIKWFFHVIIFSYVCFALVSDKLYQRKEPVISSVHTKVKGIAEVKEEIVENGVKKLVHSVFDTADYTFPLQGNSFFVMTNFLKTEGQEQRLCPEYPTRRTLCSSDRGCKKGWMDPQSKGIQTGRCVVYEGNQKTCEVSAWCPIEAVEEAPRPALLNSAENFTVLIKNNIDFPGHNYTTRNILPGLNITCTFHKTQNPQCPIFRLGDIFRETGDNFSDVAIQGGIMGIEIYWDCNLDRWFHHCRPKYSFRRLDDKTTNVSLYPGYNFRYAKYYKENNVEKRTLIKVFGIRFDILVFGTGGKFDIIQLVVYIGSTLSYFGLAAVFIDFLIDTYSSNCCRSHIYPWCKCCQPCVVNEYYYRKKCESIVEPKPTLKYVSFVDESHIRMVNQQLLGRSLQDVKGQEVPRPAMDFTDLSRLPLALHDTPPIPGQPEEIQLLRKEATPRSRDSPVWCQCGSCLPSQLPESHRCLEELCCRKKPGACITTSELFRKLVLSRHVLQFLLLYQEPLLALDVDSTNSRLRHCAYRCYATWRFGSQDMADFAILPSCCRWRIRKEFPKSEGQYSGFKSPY
# measurement.description: Yo-Pro-1 uptake assay (Yo-Pro-1 Assay) in HEK-293 cells transiently transfected with P2X7R
# Type: cell-based
# test.parameters: HEK293; compound at 5 μM; 30 μM bzATP stimulus; reading 1 hour after stimulation; transfected HEK-293 cells; read-out: Percentage of activity remains in the presence of the compound at 5 μM, P2X7R (Yo-Pro-1 Assay)
Hi all, reminder that labels come from remaining activity at 5 µM, split as low = under 10%, mid = from 10% up to 40%, high = 40% and over

Query: Into which bin does this compound go? CC(C)N(C(C)C)S(=O)(=O)c1ccc(N2CCCC(NC(=O)CCc3ccccc3)C2)cc1 (centres unmarked) [#49]
Response: low

Query: Looking at O=C(CCc1ccccc1)N1CCN(S(=O)(=O)c2ccc(F)cc2)CC1 [#30] , which class would you pick?
Response: high

Query: // return the class label for CC(C)S(=O)(=O)c1ccc(N2CCCC(NC(=O)CCc3ccccc3)C2)cc1 (centres unmarked) [#7]
Response: mid

Query: Assign a category based on measured remaining activity at 5 µM for CC(C)OC1CCN(c2ccc(S(=O)(=O)N3CCCC(NC(=O)CCc4ccccc4)C3)cc2)CC1 (centres unmarked) [#39] and give only the class name.
Response: mid

Query: Kindly identify the class of O=C(NCCc1ccccc1)C1CCN(S(=O)(=O)c2ccc(N3CCOCC3)cc2)CC1 [#23] .
Response: mid

Query: In plain terms, what class is CC(C)(C)OC(=O)N1CCN(c2ccc(S(=O)(=O)N3CCC(C(=O)NCCc4ccccc4)CC3)cc2)CC1 [#22] ?
Response: high

Query: Tag the class for NS(=O)(=O)c1ccc(N2CCCC(NC(=O)CCc3ccccc3)C2)cc1 (centres unmarked) [#53]
Response: low

Query: Just checking, what class would you give O=C(NCCc1ccccc1)C1CCCN(S(=O)(=O)c2ccc(N3CCOCC3)cc2)C1 (centres unmarked) [#24] here?
Response: mid

Query: For this compound, which bin applies? O=C(CCc1ccccc1)NC1CCCN(S(=O)(=O)c2ccc(N3CCC(F)(F)CC3)cc2)C1 (centres unmarked) [#46]
Response: low

Query: GET /class?item= CCOc1ccc(S(=O)(=O)N2CCCC(NC(=O)CCc3ccccc3)C2)cc1 (centres unmarked) [#37]
Response: high

Query: Form: Item = CC(C)(C)OC(=O)N1CCN(c2ccc(S(=O)(=O)N3CCCC(C(=O)NCCc4ccccc4)C3)cc2)CC1 (centres unmarked) [#36] ; Class = ?
Response: high

----------
# target.under.test: Human P2X1 receptor (P2X1R) (Homo sapiens, UniProt P51575)
# Construct: expressed in transfected cells; host or cells: HEK-293
# Sequence (P51575 whole entry): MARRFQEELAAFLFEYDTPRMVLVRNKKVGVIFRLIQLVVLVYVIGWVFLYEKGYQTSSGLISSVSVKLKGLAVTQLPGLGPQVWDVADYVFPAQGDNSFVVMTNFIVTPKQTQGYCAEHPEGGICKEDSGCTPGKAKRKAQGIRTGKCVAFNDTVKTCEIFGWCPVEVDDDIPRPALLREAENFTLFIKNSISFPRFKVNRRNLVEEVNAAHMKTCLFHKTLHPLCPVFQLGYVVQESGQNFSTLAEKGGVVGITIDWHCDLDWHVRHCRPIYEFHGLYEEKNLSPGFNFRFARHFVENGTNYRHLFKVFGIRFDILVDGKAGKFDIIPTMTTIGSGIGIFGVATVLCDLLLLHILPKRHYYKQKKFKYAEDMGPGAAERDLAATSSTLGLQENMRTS
# measurement.description: Receptor-mediated calcium entrance assay (Calcium Assay), P2X1R transfected HEK-293 cells
# Format: cell-based
# test.parameters: HEK293, compound at 5 μM, ATP 20 μM stimulus, read-out: Percentage of activity remains in the presence of the compound at 5 μM, P2X1R (Calcium Assay)
# Excerpt: Human P2X1 receptor (P2X1R) is a member of P2X family. […] Thus, the calcium assay was used. In the calcium assay, P2X receptor activation leads to opening of ion channels, which increases intracellular calcium concentration. The increased intracellular calcium concentration can be detected by a calcium indicator dye such as Fluo-4 or Fluo-8. […] At this point, the base level of fluorescence was obtained through the microplate reading—the base microplate reading for this assay. […]
reported.endpoint: remaining activity at 5 µM

Query: For Human P2X1 receptor (P2X1R) (Homo sapiens, UniProt P51575), provide remaining activity at 5 µM of CS(=O)(=O)c1ccc(N2CCCC(NC(=O)CCc3ccccc3)C2)cc1 (stereo not drawn) [#1] please.
Response: 56.5%

Query: Identify the measured remaining activity at 5 µM of O=C(CCc1ccccc1)NC1CCCN(S(=O)(=O)c2ccc(N3CCC(F)(F)CC3)cc2)C1 (stereo not drawn) [#46] for Human P2X1 receptor (P2X1R) (Homo sapiens, UniProt P51575).
Response: 67.7%

Query: So what remaining activity at 5 µM did O=C(NCCc1ccccc1)C1CCCN(S(=O)(=O)c2ccc(N3CCCC3)cc2)C1 (stereo not drawn) [#25] get with Human P2X1 receptor (P2X1R) (Homo sapiens, UniProt P51575)?
Response: 66.1%

Query: Lab note: need remaining activity at 5 µM with Human P2X1 receptor (P2X1R) (Homo sapiens, UniProt P51575) for entry O=C(CCc1ccccc1)NC1CCCN(c2ccc(S(=O)(=O)NC3CCCCC3)cc2)C1 (stereo not drawn) [#51] , please look it up.
Response: 63.1%

Query: Please provide the recorded remaining activity at 5 µM for CN1CCN(c2ccc(S(=O)(=O)N3CCCC(NC(=O)CCc4ccccc4)C3)cc2)CC1 (stereo not drawn) [#18] , tested on Human P2X1 receptor (P2X1R) (Homo sapiens, UniProt P51575).
Response: 62.3%

Query: Notebook entry, Human P2X1 receptor (P2X1R) (Homo sapiens, UniProt P51575) assay: remaining activity at 5 µM of O=C(NCCc1ccccc1)C1CCN(S(=O)(=O)c2ccc(N3CCCCC3)cc2)CC1 [#20] = ?
Response: 75.4%
